Reported T/C values are given for each entry in this list.
system: L1210 leukemia ip in BDF1 mice, survival T/C; experiment: NCI In Vivo Anticancer Drug Screen. Data for tumor model L1210 Leukemia (intraperitoneal) in B6D2F1 (BDF1) mice; conditions: endpoint: mean survival time; dose: 400.0 mg/kg/injection; schedule: Q04DX003 (ip); vehicle: saline with Tween-80; higher = longer survival
Inconclusive results and toxic doses are left out.
measurement.type: T/C

molecule=CCOc1ccc(Br)cc1C=O value_measured="101 % of control"
molecule=CN=C(N)N value_measured="103 % of control"
molecule=COc1ccc([N+](=O)[O-])cc1NS(=O)(=O)c1ccc(C)cc1 value_measured="92 % of control"
molecule="CC1CC(=O)NN1C(=S)Nc1ccccc1 (configuration not stated)" value_measured="100 % of control"
molecule=Fc1ccc(-c2n[nH]c3c2CCCc2ccccc2-3)cc1 value_measured="102 % of control"
molecule=O=[N+]([O-])c1ccc(OCc2ccccc2)c([N+](=O)[O-])c1 value_measured="89 % of control"
molecule=Fc1nc2nc(C(F)(F)F)[nH]c2nc1F value_measured="90 % of control"

###

Reported T/C values are given for each entry in this list.
test system: L1210 leukemia ip in BDF1 mice, survival T/C; test: NCI In Vivo Anticancer Drug Screen. Data for tumor model L1210 Leukemia (intraperitoneal) in B6D2F1 (BDF1) mice; details: endpoint: mean survival time; dose: 200.0 mg/kg/injection; schedule: Q04DX003 (ip); vehicle: saline; higher = longer survival
Inconclusive results and toxic doses are left out.
measurement.type: T/C

compound="C#CC(C)(C)OCC1CO1 (stereo not drawn)" measurement_type=T/C value_measured="95 % of control"
compound=CNC(=O)CCC(=O)O measurement_type=T/C value_measured="108 % of control"
compound="CCOC(=O)CNC(=O)C1CSC(C)(C)N1C=O (stereo not drawn)" measurement_type=T/C value_measured="94 % of control"
compound=CCN(CC)CCN(C)C measurement_type=T/C value_measured="97 % of control"
compound=S=c1cc(-c2cccs2)ss1 measurement_type=T/C value_measured="105 % of control"
compound=CCN(CC)C(=S)S measurement_type=T/C value_measured="106 % of control"
compound=c1ccc2c(c1)[nH]c1nc3ncncc3nc12 measurement_type=T/C value_measured="88 % of control"
compound=COc1ccc(C=O)c(Cl)c1OC measurement_type=T/C value_measured="108 % of control"
compound="CCOC(=O)CCC(NC(=O)C1CSC(C)(C)N1C=O)C(=O)OCC (stereo not drawn)" measurement_type=T/C value_measured="93 % of control"
compound=Cn1c(=O)c2c(ncn2CCSc2nnnc3ccccc23)n(C)c1=O measurement_type=T/C value_measured="93 % of control"
compound=c1ccc(-c2nnnn2C23CC4CC(CC(C4)C2)C3)cc1 measurement_type=T/C value_measured="100 % of control"
compound=O=C(Nc1ccc2c(O)cc(S(=O)(=O)O)cc2c1)Nc1ccc2c(O)cc(S(=O)(=O)O)cc2c1 measurement_type=T/C value_measured="108 % of control"
compound=CN(C)CCOC(=O)c1ccc(N)cc1 measurement_type=T/C value_measured="98 % of control"

###

system: L1210 leukemia ip in BDF1 mice, survival T/C; assay: NCI In Vivo Anticancer Drug Screen. Data for tumor model L1210 Leukemia (intraperitoneal) in B6D2F1 (BDF1) mice; settings: endpoint: mean survival time; dose: 400.0 mg/kg/injection; schedule: Q01DX009 (ip); vehicle: Klucel (hydroxypropylcellulose) (HPC); higher = longer survival
Inconclusive results and toxic doses are left out.
measurement.type: T/C

compound=COc1c(NC(=O)c2ccc(C(=O)Nc3cccc([N+](=O)[O-])c3OC)cc2)cccc1[N+](=O)[O-] value_measured="97 % of control"
compound=COc1c(NC(=O)Nc2ccc(F)c([N+](=O)[O-])c2)cccc1[N+](=O)[O-] value_measured="97 % of control"
compound="CC1CC(=O)c2ccccc2N1S(C)(=O)=O (stereo unspecified)" value_measured="101 % of control"
compound=O=C1C(I)=CC(=C(c2cc(I)c(O)c(I)c2)c2ccccc2C(=O)O)C=C1I value_measured="98 % of control"
compound=O=C(COc1ccc(Cl)cc1)Nc1ccccc1C(F)(F)F value_measured="98 % of control"
compound=Cc1cccc(NC(=O)c2ccc(Cl)cc2)c1C value_measured="95 % of control"
compound=CC(C)c1cccc(C(C)C)c1OC(=O)Nc1ccccc1Cl value_measured="89 % of control"
compound=Cc1ccc(NC(=O)C(=O)Nc2ccc(C)cc2)cc1 value_measured="90 % of control"
compound=CCCCCCCCCCCCCCCCCCOc1ccccn1 value_measured="91 % of control"
compound=CCCCCCC(/C=N/NC(=O)CCCCCCCCC(=O)N/N=C/C(=C/c1ccccc1)CCCCCC)=C\c1ccccc1 value_measured="91 % of control"
compound=CCC(=O)Nc1cc(C(C)C)ccc1C value_measured="103 % of control"

###

Reported T/C values are given for each entry in this list.
system: L1210 leukemia ip in BDF1 mice, survival T/C; experiment: NCI In Vivo Anticancer Drug Screen. Data for tumor model L1210 Leukemia (intraperitoneal) in B6D2F1 (BDF1) mice; conditions: endpoint: mean survival time; dose: 100.0 mg/kg/injection; schedule: Q04DX002 (ip); vehicle: Klucel (hydroxypropylcellulose) (HPC); higher = longer survival
Inconclusive results and toxic doses are left out.
measurement.type: T/C

molecule="CC(=O)Oc1c2c(n3c1CCC3)CC(C)CC2=O (stereo unspecified)" value_measured="97 % of control"
molecule=c1ccc2cc(C3OCC4(CCCC4)CO3)ccc2c1 value_measured="103 % of control"
molecule=O=C(NN1C(=O)c2cccc3cccc(c23)C1=O)NN1C(=O)c2cccc3cccc(c23)C1=O value_measured="92 % of control"
molecule=COc1ccc(OC)c(-n2cccc2C#N)c1 value_measured="104 % of control"
molecule=O=c1[nH]c(CCCc2ccccc2)c(Br)c(=O)[nH]1 value_measured="100 % of control"
molecule=C(=N\c1oc(-c2ccccc2)nc1SCc1ccccc1)/c1ccccc1 value_measured="96 % of control"

###

Reported T/C values are given for each entry in this list.
System: L1210 leukemia ip in BDF1 mice, survival T/C
Experiment: NCI In Vivo Anticancer Drug Screen. Data for tumor model L1210 Leukemia (intraperitoneal) in B6D2F1 (BDF1) mice
Settings: endpoint: mean survival time; dose: 400.0 mg/kg/injection; schedule: Q01DX009 (ip); vehicle: saline; higher = longer survival
Description: The antitumor activity of compounds was measured in mice bearing transplantable tumors. Survival or tumor size were measured and the results are expressed as the measurement made in the treated group (T) divided by the measurement made in the vehicle treated control group (C). The tumor model used in this assay is L1210 Leukemia (intraperitoneal) in B6D2F1 (BDF1) mice
Toxic doses and inconclusive results are not listed.
measurement.type: T/C

molecule="CCCCCCCCNC(=O)C1OC(n2cnc3c(N)ncnc32)C(O)C1O (stereo not drawn)" value_measured="110 % of control"
molecule="CCOC(=O)CP(=O)(OC)c1ccccc1 (stereo not drawn)" value_measured="101 % of control"
molecule="C#CC(C)(C)OCC1CO1 (stereo not drawn)" value_measured="93 % of control"
molecule=COC(=O)C(C)(C)O value_measured="97 % of control"
molecule=O=S(=O)(c1ccc(Cl)cc1)c1ccc(Cl)cc1 value_measured="93 % of control"
molecule=CCOC(=O)CCN(CC)C(C)=O value_measured="93 % of control"
molecule="CC(=O)OCC(Br)C(Br)COC(C)=O (stereo not drawn)" value_measured="103 % of control"
molecule=O=c1[nH][nH]c(=O)n1O value_measured="88 % of control"

###

Reported T/C values are given for each entry in this list.
system: L1210 leukemia ip in BDF1 mice, survival T/C; assay: NCI In Vivo Anticancer Drug Screen. Data for tumor model L1210 Leukemia (intraperitoneal) in B6D2F1 (BDF1) mice; conditions: endpoint: mean survival time; dose: 200.0 mg/kg/injection; schedule: Q04DX003 (ip); vehicle: Klucel (hydroxypropylcellulose) (HPC); higher = longer survival
Inconclusive results and toxic doses are left out.
measurement.type: T/C

compound=Cc1nc(SCc2ccccc2)nc(N)c1CN measured_target="L1210 leukemia ip in BDF1 mice, survival T/C" value_measured="104 % of control"
compound=CN(C)c1ccc(/C=C\C(=O)c2ccccc2)cc1 measured_target="L1210 leukemia ip in BDF1 mice, survival T/C" value_measured="93 % of control"
compound=C[NH-].C[NH-].C[NH-].C[NH-].[Cl][Rh][Cl] measured_target="L1210 leukemia ip in BDF1 mice, survival T/C" value_measured="94 % of control"
compound="CC(C(O)c1ccccc1)C(O)(C(F)(F)Cl)C(F)(F)Cl (stereo not drawn)" measured_target="L1210 leukemia ip in BDF1 mice, survival T/C" value_measured="88 % of control"
compound=CCOC(=O)CCc1c(C(=O)OCC)[nH]c(C)c1C(=O)O measured_target="L1210 leukemia ip in BDF1 mice, survival T/C" value_measured="98 % of control"
compound=c1ccc(-c2nc3cnccc3o2)cc1 measured_target="L1210 leukemia ip in BDF1 mice, survival T/C" value_measured="99 % of control"
compound=Cc1ccc2c(ccc3ccc4ccccc4c32)c1 measured_target="L1210 leukemia ip in BDF1 mice, survival T/C" value_measured="89 % of control"
compound=O=Cc1c(Cl)c(Cl)c(C=O)c(Cl)c1Cl measured_target="L1210 leukemia ip in BDF1 mice, survival T/C" value_measured="101 % of control"
compound="CCC(C)C(C(=O)OCCN(CC)CC)c1ccccc1 (stereo not drawn)" measured_target="L1210 leukemia ip in BDF1 mice, survival T/C" value_measured="91 % of control"
compound=NC(=O)CCc1cnc2ccccc2n1 measured_target="L1210 leukemia ip in BDF1 mice, survival T/C" value_measured="106 % of control"
compound=O=[N+]([O-])c1ccc(C=Nc2cccc3ncccc23)s1 measured_target="L1210 leukemia ip in BDF1 mice, survival T/C" value_measured="93 % of control"
compound=Nc1cc2ccc(S(=O)(=O)O)cc2cc1S(=O)(=O)O measured_target="L1210 leukemia ip in BDF1 mice, survival T/C" value_measured="97 % of control"
compound=O=C(COc1ccccc1)NCCO measured_target="L1210 leukemia ip in BDF1 mice, survival T/C" value_measured="97 % of control"

FYI, the data here is from PubChem BioAssay AID248.
